- Measured on: T1, recombinant human PD-1-Fc-Biotin (human, UniProt Q15116 25-167, biotin (site not stated))
- T1 construct: also called antigen protein human PD-1; not shown: Fc
- Measurement description: competitive ELISA; PD-L1-mFc coated, 0.5 µg/mL PD-1-Fc-Biotin, streptavidin-HRP
pIC50: −log10 of the molar value.
Recorded measurements of pIC50, one per entry

Binder	pIC50
MHPD1-A-8 H Fc (Fc fusion, not shown: Fc) QVQLVESGGGLVQPGGSLRLSCAASGGRPSIYAMGWFRQAPGKGLEFVAGIGWAFATTYYADSVKGRFTISRDNTKNTLYLQMNSLRAEDTAVYYCAADLDHSGFDYWGQGTLVTVSS	9.49
MHPD1-A-11 H Fc (Fc fusion, not shown: a dimerising Fc or GST; small tags and cut ends) VHH: QVQLVESGGGLVQPGGSLRLSCAASGSQLSIYAMGWFRQAPGKGLEFVAGIGWRFATTYYADSVKGRFTISRDNTKNTLYLQMNSLRAEDTAVYYCAADLDHSGFDYWGQGTLVTVSS	9.44
MHPD1-A-14 H Fc (Fc fusion, not shown: a dimerising Fc or GST; small tags and cut ends) VHH: QVQLVESGGGLVQPGGSLRLSCAASSHRPSIYAMGWFRQAPGKGLEFVAGIGWRYATTYYADSVKGRFTISRDNTKNTLYLQMNSLRAEDTAVYYCAADLDHSGFDYWGQGTLVTVSS	9.07
MHPD1-A-12 H Fc (Fc fusion, not shown: a dimerising Fc or GST; small tags and cut ends) VHH: QVQLVESGGGLVQPGGSLRLSCAASGSDYAIYAMGWFRQAPGKGLEFVAGIGWAFATTYYADSVKGRFTISRDNTKNTLYLQMNSLRAEDTAVYYCAADLDHSGFDYWGQGTLVTVSS	9.53
